Target or system UniProt P12931; metric IC50; compiled from varied reports.

Worked examples, 4 compounds total:
compound=N#Cc1cnc2[nH]cc(C(=O)c3cccc(NS(=O)(=O)c4ccc(F)cc4F)c3F)c2c1 measurement_label=IC50 measured_result="≤ 10000 nM"
compound=C=CC(=O)N1CC(N2CCC(C#Cc3c(-c4ccc(Nc5ccccn5)cc4)c4c(N)ncnc4n3C(C)C)CC2)C1 measurement_label=IC50 measured_result="10 to 1000 nM"
compound=Cn1c(C#CC2CC3(C2)CN(C(=O)/C=C/CN2CCC2)C3)c(-c2ccc(Oc3ccccc3)cc2)c2c(N)ncnc21 measurement_label=IC50 measured_result="≤ 10 nM"
compound=COCCN(CCOC)c1ccc(-c2nc3cc(NC(=O)OC(C)C)cnc3[nH]2)cc1F measurement_label=IC50 measured_result="10 to 500 nM"

Reported UniProt P12931 IC50 for item CC(C)(C)c1cc(NC(=O)Nc2ccc(Oc3ccnc(Nc4ccc5c(c4)NC(=O)C5)n3)c3ccccc23)n(-c2cccc(OCCN3CCOCC3)c2)n1 was < 1 nM

Noted IC50 for CCCS(=O)(=O)Nc1ccc(F)c(C(=O)c2c[nH]c3ncc(-c4ccn[nH]4)cc23)c1F , tested on UniProt P12931: ≤ 10000 nM
